Biological target: Rec. human COMT (Homo sapiens, UniProt P21964)
Sequence (P21964 1-271): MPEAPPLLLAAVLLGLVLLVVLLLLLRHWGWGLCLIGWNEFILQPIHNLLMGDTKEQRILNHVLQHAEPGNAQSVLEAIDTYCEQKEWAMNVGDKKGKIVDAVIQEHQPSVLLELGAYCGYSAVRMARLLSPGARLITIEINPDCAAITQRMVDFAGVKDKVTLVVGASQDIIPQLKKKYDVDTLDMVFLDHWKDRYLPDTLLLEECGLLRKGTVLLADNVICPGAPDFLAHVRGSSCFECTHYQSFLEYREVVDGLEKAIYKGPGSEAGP
Assay: COMT-Fluorescence Assay
Assay type: biochemical
Conditions: COMT-fluorescence assay, rec. human COMT 25 nM, 4-Nitrocatechol-Alexa488 200 nM, SAM 500 nM; read-out: IC50
measured-parameter: pIC50
Answers are plain numbers, as −log10 of the molar value.

The following molecules have reported results that may help.
{"molecule": "O=c1[nH]cnc2c(O)cc(-c3ccc(Br)nc3)cc12", "pIC50": 7.30}
{"molecule": "COC(=O)c1cc(O)c2nc[nH]c(=O)c2c1", "pIC50": 7.52}
{"molecule": "Cc1cc(F)ccc1-c1cc(O)c2nc[nH]c(=O)c2c1", "pIC50": 7.70}

Please go through the list and note pIC50 for each molecule.
1. O=c1[nH]cnc2c(O)cc(C3CCc4ccccc4C3)cc12 (racemic)
2. O=c1[nH]cnc2c(O)ccc(Cl)c12 [Example 143, 5-Chloro-8-hydroxyquinazolin-4(3H)-one]

Result:
7.00
6.09

Give pIC50 for all molecules that follow.
1. Cc1c(Br)cc2c(=O)[nH]cnc2c1O
2. O=c1[nH]cnc2c(O)cc(Cc3ccccc3)cc12 [Example 9, 6-Benzyl-8-hydroxyquinazolin-4(3H)-one]
3. COCc1cc(C(=O)N(CCN(C(C)C)C(C)C)C(C)C)ccc1-c1cc(O)c2nc[nH]c(=O)c2c1 [Example 106, 2,2,2-trifluoroacetate]
4. CN(C)c1ccccc1-c1cc(O)c2nc[nH]c(=O)c2c1
5. Cc1c(-c2cc(O)c3nc[nH]c(=O)c3c2)cnn1-c1ccccc1
6. CN(C)c1ccc(-c2cc(O)c3nc[nH]c(=O)c3c2)cn1

Result:
1: 5.49; 2: 5.88; 3: 7.70; 4: 6.43; 5: 7.70; 6: 7.70

----------
Target: Rec. human COMT (Homo sapiens)
Experiment: COMT-Fluorescence Assay
Assay type: biochemical
Conditions: COMT-fluorescence assay, rec. human COMT 25 nM, 4-Nitrocatechol-Alexa488 200 nM, SAM 500 nM; read-out: IC50
measured-parameter: log10(IC50) (log10 of the value in µM)
Parameter value (number): base-10 log of IC50 in µM.

{"molecule": "O=C(Nc1c(-c2ccc(F)cc2)cc(O)c2nc[nH]c(=O)c12)c1ccccc1", "value": 0.15}
{"molecule": "O=c1[nH]cnc2c(O)cc(-c3ccccc3C(F)(F)F)cc12", "value": -1.52}
{"molecule": "O=c1[nH]cnc2c(O)cc(-c3ccccc3COCCN3CCN(CC(F)(F)F)CC3)cc12 [Example 121, 2,2,2-trifluoroacetate]", "value": -1.52}
{"molecule": "Cc1ccc(C)c2c1C=C(c1cc(O)c3nc[nH]c(=O)c3c1)CC2", "value": -1.10}
{"molecule": "Cc1cnccc1-c1cc(O)c2nc[nH]c(=O)c2c1", "value": -1.70}
{"molecule": "Cc1n[nH]cc1-c1cc(O)c2nc[nH]c(=O)c2c1", "value": -0.77}
{"molecule": "COC(=O)c1nn(C)cc1-c1cc(O)c2nc[nH]c(=O)c2c1", "value": -0.92}

We now examine a further molecule.
Task: Quote log10(IC50) with test system Rec. human COMT (Homo sapiens) for COc1ccccc1Cc1cc(O)c2nc[nH]c(=O)c2c1
Result: 0.69

----------
What IC50 was measured for each of the following?
Molecular target: Rec. human COMT (Homo sapiens, UniProt P21964)
Sequence (P21964 1-271): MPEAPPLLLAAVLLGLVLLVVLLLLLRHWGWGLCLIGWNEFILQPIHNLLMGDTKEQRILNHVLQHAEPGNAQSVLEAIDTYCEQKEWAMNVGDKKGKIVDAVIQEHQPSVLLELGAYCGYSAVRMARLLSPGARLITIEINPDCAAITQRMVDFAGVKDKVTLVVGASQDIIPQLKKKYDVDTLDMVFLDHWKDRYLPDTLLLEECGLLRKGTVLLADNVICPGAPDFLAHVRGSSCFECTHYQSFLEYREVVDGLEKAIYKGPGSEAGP
Assay: COMT-Fluorescence Assay
Type: biochemical
Conditions: COMT-fluorescence assay, rec. human COMT 25 nM, 4-Nitrocatechol-Alexa488 200 nM, SAM 500 nM; read-out: IC50
One number for each entry, in nM.

Some entries whose results are on file:
{"compound": "O=c1[nH]cnc2c(O)cc(-c3ccccc3CO)c(Cl)c12 [Example 255]", "IC50 (nM)": 120}
{"compound": "CC(C)N1CCc2c(cccc2-c2cc(O)c3nc[nH]c(=O)c3c2)C1 [Example 108, 2,2,2-trifluoroacetate]", "IC50 (nM)": 80}
{"compound": "O=C(c1cccc(-c2cc(O)c3nc[nH]c(=O)c3c2)c1)N1CCOCC1 [Example 175]", "IC50 (nM)": 20}

Value sought for every listed compound: IC50.
1. O=c1[nH]cnc2c(O)cc(/C=C/c3ccccc3)cc12 [Example 20]
2. CCOc1ccccc1-c1cc(O)c2nc[nH]c(=O)c2c1 [Example 225]
3. COc1ccc(C(F)(F)F)cc1-c1cc(O)c2nc[nH]c(=O)c2c1 [Example 26]
4. O=C(c1ccccc1-c1cc(O)c2nc[nH]c(=O)c2c1)N1CCS(=O)(=O)CC1 [Example 194]

Result:
1: 90; 2: 60; 3: 190; 4: 730

Task: Find the measured IC50 of COCc1c(C(=O)N2CCN(C)CC2)cccc1-c1cc(O)c2nc[nH]c(=O)c2c1 [Example 235] and report it.
Result: 30

----------
Please go through the items and note down their pIC50.
Molecular target: Rec. human COMT (Homo sapiens, UniProt P21964)
Test: COMT-Fluorescence Assay
Type: biochemical
Conditions: COMT-fluorescence assay, rec. human COMT 25 nM, 4-Nitrocatechol-Alexa488 200 nM, SAM 500 nM; read-out: IC50
Numbers only, as −log10 of the molar value.

{"compound": "Cn1ncc2c(-c3cc(O)c4nc[nH]c(=O)c4c3)cccc21", "pIC50": 8.00}

State the recorded pIC50 for every item in the following list.
1. COCc1ccccc1-c1cc(O)c2nc[nH]c(=O)c2c1
2. COC(=O)c1csc(-c2cc(O)c3nc[nH]c(=O)c3c2)n1
3. CCOC(=O)c1[nH]c(-c2cc(O)c3nc[nH]c(=O)c3c2)nc1C

Result:
1: 7.70; 2: 6.96; 3: 7.05

Value sought for every listed compound: pIC50.
1. O=c1[nH]cnc2c(O)cc(C3=CCCCC3)cc12
2. O=c1[nH]cnc2c(O)ccc(Br)c12 [Example 1, 5-Bromo-8-hydroxyquinazolin-4(3H)-one]
3. COc1ccc(C)cc1-c1cc(O)c2nc[nH]c(=O)c2c1
4. O=c1[nH]cnc2c(O)cc(-c3ccc(F)cc3)c(Br)c12
5. O=c1[nH]cnc2c(O)cc(-c3ccc(S(F)(F)(F)(F)F)cc3)cc12
6. O=c1[nH]cnc2c(O)c(Cl)c(Br)cc12

Result:
7.52
6.30
7.10
8.00
7.30
5.80

// for each compound in input: emit pIC50
1. O=c1[nH]cnc2c(O)cc(-c3ccc4c(c3)OCO4)cc12
2. O=c1[nH]cnc2c(O)c(F)c(-c3ccc(F)cc3)c(-c3ccc(F)cc3)c12
3. COc1ncc(-c2cc(O)c3nc[nH]c(=O)c3c2)c(OC)n1
4. O=c1[nH]cnc2c(O)cc(-c3ccccc3Oc3ccccc3)cc12
5. CN1CCN(C(=O)c2ccccc2-c2cc(O)c3nc[nH]c(=O)c3c2)CC1
6. CCN(CC)C(=O)c1ccc(-c2c(-c3ccc(F)cc3)cc(O)c3nc[nH]c(=O)c23)cc1

Result:
7.40
8.00
7.10
7.22
5.89
8.00
